# Measurement notes: Krafft point of anionic surfactants
# Assay type: physicochemical
Property: Krafft point (°C)
# value in °C; strip the unit string

**Query** For the compound shown here, `CCCCCCCCCCCCCCCCCC(=O)NCCCOS(=O)(=O)O` , give the reported Krafft point.
**Result** 57

**Query** Quick one: Krafft point of `CCCCCCCCCCCCCCCCCC(=O)N(C)CCS(=O)(=O)O.[Na]` ?
**Result** 58

**Query** Please look up its Krafft point: CCCCCCCCCCCCCCS(=O)(=O)[O-].[Na+] [sodium tetradecanesulfonate]
**Result** 48

**Query** I would be grateful if you could share the reported Krafft point for CCCCCCCCCCCCCCCCOS(=O)(=O)[O-].[Na+] [sodium hexadecyl sulfate] .
**Result** 43

**Query** Which Krafft point reading was recorded for the compound CCCCCCCCCCCCCCCCCS(=O)(=O)[O-].[Na+] [sodium heptadecanesulfonate] ?
**Result** 62

**Query** Recorded Krafft point of `CCCCCCCCCCCCCCCC(=O)NCCCOS(=O)(=O)O` , please.
**Result** 47
